Assay: Plasma protein binding
Format: in vitro ADME
Settings: n = 2
measurementKind: fraction unbound at 4 h, 10 µM
Give your answer as a number; write no unit.

1. CN(CCC(=O)NCc1ccc(C#N)cc1)Cc1ccccc1; 0.37

Lab note: next molecule to report on.
What value of measured fraction unbound at 4 h, 10 µM is listed for CN(CCC(=O)NCc1cccc(Cl)c1)Cc1ccccc1 ? 0.02

###

Biological target: MRP1 (Homo sapiens)
Sequence (P33527 whole entry): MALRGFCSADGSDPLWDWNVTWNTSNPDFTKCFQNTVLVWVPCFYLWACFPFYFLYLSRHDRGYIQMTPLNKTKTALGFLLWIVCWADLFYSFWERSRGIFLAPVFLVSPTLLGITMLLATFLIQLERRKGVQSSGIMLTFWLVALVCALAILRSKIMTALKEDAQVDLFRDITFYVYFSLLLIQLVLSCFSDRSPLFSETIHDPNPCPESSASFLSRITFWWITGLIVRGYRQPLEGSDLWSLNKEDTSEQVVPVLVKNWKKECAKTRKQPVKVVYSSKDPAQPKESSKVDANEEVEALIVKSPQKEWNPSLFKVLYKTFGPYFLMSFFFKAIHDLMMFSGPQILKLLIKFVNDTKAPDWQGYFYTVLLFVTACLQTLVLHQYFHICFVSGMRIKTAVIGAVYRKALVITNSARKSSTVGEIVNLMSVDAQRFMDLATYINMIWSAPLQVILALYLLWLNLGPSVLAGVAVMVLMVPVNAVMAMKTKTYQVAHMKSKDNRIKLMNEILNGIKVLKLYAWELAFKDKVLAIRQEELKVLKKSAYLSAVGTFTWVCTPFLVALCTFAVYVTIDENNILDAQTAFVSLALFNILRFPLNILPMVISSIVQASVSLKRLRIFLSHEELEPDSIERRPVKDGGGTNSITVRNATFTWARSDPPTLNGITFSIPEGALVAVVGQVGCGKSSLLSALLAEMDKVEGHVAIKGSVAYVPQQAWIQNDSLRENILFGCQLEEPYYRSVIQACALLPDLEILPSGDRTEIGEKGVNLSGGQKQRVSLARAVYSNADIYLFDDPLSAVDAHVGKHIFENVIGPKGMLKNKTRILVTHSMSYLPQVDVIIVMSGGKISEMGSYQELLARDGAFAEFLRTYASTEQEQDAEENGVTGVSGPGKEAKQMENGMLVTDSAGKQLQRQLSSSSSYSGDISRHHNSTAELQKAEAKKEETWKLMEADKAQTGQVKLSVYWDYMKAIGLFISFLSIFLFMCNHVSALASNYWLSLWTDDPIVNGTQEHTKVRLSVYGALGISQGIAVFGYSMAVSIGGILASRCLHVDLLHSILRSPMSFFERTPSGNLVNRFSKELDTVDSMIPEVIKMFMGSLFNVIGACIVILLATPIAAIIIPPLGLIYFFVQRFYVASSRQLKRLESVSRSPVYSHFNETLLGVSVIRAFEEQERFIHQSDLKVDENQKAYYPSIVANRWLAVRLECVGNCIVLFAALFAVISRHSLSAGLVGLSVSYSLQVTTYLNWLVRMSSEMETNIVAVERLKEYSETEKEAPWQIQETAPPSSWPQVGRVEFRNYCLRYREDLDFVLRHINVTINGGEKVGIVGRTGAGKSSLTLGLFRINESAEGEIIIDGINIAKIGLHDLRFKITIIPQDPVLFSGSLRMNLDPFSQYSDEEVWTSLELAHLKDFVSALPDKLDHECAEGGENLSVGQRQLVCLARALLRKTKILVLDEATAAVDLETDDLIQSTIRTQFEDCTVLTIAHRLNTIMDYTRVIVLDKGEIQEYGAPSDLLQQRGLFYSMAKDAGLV
Assay: Transporter inhibition in overexpressing cell lines
Type: in vitro ADME
Details: ABC family, n = 2, read-out: Drug transport inhibition MRP1
measurementKind: inhibition at 10 µM
Your reply should be a number followed by the unit it is expressed in.

1. CN(CCC(=O)NCc1ccc(C#N)cc1)Cc1ccccc1; -1.1%

Lab note: next compound to report on.
What value of measured inhibition at 10 µM is listed for CN(CCC(=O)NCc1cccc(Cl)c1)Cc1ccccc1 ? -0.3%

###

Reported solubility is given for each of the following molecules.
Assay: Solubility, shake-flask method, HPLC-UV/VIS
Type: physicochemical
Details: aqueous buffer, thermodynamic from solid; PBS pH 7.4; n = 2; read-out: Solubility PBSpH7.4
Respond numerically; units are µM and should not be typed.

1) CN(CCC(=O)NCc1cccc(Cl)c1)Cc1ccccc1; 167

What value of measured solubility is listed for CN(CCC(=O)NCc1ccc(C#N)cc1)Cc1ccccc1 ? 190

###

Molecular target: S1R (Homo sapiens, UniProt Q99720)
Construct: For the S1R assay, Jurkat cell membranes (10–20 μg protein/tube) were incubated at 37 °C for 2 h; host or cells: Jurkat cell membranes
Sequence (Q99720 whole entry): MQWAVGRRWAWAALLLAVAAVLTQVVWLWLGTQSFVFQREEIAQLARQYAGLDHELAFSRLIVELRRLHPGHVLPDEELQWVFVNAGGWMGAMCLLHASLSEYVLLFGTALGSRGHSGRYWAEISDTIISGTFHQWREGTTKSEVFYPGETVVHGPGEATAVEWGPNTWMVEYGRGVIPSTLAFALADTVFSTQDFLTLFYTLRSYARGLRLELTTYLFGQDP
Test: S1R competitive radioligand binding, [3H](+)-pentazocine, Jurkat cell membranes
Conditions: [3H](+)-pentazocine, Jurkat cell membranes; mean of 2–3 independent experiments
measurementKind: Ki
Your reply should be a number followed by the unit it is expressed in.

What value of measured Ki is listed for CN(CCC(=O)NCc1cccc(Cl)c1)Cc1ccccc1 ? 0.6 nM

What value of measured Ki is listed for CN(CCCNC(=O)c1ccc(Cl)cc1)Cc1ccccc1 ? 3.2 nM

What value of measured Ki is listed for CN(CCC(=O)NCc1ccc([N+](=O)[O-])cc1)Cc1ccccc1 ? 110 nM

###

Target: S2R (Homo sapiens)
Construct: For the S2R assay, Jurkat cell membranes (10–20 μg protein/tube) were incubated at room temperature for 1 h; host or cells: Jurkat cell membranes
Sequence (Q5BJF2 whole entry): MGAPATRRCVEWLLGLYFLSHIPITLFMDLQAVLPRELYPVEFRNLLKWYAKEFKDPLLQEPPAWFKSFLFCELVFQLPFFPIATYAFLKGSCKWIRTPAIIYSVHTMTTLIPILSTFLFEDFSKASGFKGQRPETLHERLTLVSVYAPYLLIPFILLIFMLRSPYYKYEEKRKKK
Assay: S2R competitive radioligand binding, [3H]-DTG with excess (+)-pentazocine, Jurkat cell membranes
Details: [3H]-DTG with (+)-pentazocine, mean of 2–3 independent experiments
measurementKind: Ki (nM)
Respond numerically; units are nM and should not be typed.

What value of measured Ki is listed for CN(CCCNC(=O)c1ccc(Cl)cc1)Cc1ccccc1 ? 190

###

Target: CYP2D6 (Homo sapiens)
Construct: tissue Eurofins Cerep (assay provider); host or cells: human liver microsomes
Sequence (P10635 whole entry): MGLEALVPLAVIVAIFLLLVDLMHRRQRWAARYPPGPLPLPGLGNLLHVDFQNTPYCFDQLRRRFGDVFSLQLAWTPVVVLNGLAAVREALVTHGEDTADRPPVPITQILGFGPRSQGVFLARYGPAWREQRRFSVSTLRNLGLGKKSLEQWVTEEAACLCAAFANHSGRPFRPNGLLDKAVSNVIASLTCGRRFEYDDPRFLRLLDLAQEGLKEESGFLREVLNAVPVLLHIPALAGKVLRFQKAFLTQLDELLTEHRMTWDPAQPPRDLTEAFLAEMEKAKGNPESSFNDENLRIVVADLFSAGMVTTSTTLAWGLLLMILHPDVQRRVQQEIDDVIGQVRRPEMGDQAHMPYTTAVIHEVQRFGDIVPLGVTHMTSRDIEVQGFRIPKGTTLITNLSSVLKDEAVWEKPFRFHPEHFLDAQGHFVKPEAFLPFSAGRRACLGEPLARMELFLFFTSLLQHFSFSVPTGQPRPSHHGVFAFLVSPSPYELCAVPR
Assay: CYP inhibition in human liver microsomes
Format: in vitro ADME
Conditions: n = 2, read-out: CYP inhibition 2D6
Reported inhibition at 10 µM is given for each of the following compounds.

1) CN(CCC(=O)NCc1cccc(Cl)c1)Cc1ccccc1; 80.5%

Lab note: next compound to report on.
What value of measured inhibition at 10 µM is listed for CN(CCC(=O)NCc1ccc(C#N)cc1)Cc1ccccc1 ? 87.7%

###

Target: hERG channel (Homo sapiens, UniProt Q12809)
Sequence (Q12809 whole entry): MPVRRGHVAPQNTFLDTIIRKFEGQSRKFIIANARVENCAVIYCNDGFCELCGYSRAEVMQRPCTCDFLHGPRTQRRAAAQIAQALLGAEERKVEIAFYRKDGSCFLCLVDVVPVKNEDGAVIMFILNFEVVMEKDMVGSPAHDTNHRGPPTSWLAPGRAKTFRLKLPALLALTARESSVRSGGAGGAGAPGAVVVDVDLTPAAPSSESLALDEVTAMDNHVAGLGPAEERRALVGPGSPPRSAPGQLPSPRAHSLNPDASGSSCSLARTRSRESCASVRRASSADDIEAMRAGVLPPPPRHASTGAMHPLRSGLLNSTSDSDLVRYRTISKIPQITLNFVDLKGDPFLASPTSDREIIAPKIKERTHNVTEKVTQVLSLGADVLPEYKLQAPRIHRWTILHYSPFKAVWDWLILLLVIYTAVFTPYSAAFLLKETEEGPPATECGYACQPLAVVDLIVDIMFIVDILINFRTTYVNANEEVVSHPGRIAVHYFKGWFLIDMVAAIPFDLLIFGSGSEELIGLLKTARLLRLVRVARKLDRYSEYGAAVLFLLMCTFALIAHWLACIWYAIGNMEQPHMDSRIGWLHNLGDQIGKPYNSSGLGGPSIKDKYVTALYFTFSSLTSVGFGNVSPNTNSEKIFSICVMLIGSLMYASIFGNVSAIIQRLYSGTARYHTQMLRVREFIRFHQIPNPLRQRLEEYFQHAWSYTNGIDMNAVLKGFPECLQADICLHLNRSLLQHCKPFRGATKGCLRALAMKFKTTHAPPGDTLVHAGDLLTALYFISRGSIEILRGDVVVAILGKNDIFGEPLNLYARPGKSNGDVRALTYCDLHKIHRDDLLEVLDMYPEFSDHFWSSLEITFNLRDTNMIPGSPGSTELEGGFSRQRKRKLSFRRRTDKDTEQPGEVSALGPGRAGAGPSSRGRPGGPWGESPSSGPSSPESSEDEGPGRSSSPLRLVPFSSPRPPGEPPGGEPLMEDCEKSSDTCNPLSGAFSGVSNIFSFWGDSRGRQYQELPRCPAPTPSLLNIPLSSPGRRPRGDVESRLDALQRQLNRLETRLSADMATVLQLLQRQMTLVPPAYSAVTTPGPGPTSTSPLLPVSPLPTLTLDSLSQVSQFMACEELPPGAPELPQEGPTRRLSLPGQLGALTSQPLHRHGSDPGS
Experiment: hERG automated whole-cell patch-clamp in hERG CHO-K1 cells
Conditions: tail current, hERG CHO-K1 cells, 0.1 to 10 µM; n = 2; read-out: hERG inhibition IC50
measurementKind: IC50 (µM)
Respond numerically; units are µM and should not be typed.

What value of measured IC50 is listed for CN(CCC(=O)NCc1ccc(C#N)cc1)Cc1ccccc1 ? 0.8

What value of measured IC50 is listed for CN(CCC(=O)NCc1cccc(Cl)c1)Cc1ccccc1 ? 6.8
